Cited source: patent US6136781A

# Tgt: Human LH-RH Receptor (Homo sapiens)
# Construct: expressed in transfected cells; host or cells: CHO cells (Chinese hamster ovary), membrane fraction
# Assay details: Inhibition of bonding of 125I-leuprorelin to human LH-RH receptor (receptor assay)
# Assay type: binding
# Assay conditions: human LH-RH receptor-expressing CHO cell membrane fraction, 25° C. for 60 minutes, Hill plotting
Square brackets hold non-standard residues; d marks the D form. Peptide text beside a SMILES is read from it. * marks the point of attachment. Naphthalene1sulfonyl = O=S(=O)(c1cccc2ccccc12)*; Gly(2-thienyl) = N[C@H](C(=O)O)c1cccs1; Hexanoyl(6-Ph) = O=C(CCCCCc1ccccc1)*; Mtr = COc1cc(C)c(S(=O)(=O)*)c(C)c1C; Butanoyl(4-Ph) = O=C(CCCc1ccccc1)*; 1Naphthoyl = O=C(c1cccc2ccccc12)*; NHPhenethyl = c1ccc(CCN*)cc1; Phg = N[C@H](C(=O)O)c1ccccc1; Tos = Cc1ccc(S(=O)(=O)*)cc1; Bz = O=C(c1ccccc1)*
Value kind: log10 of IC50 (log10 of the value in µM)
Please keep in mind that the values are log10 of IC50 expressed in µM.

Some entries whose results are on file:
Molecule	log10 of IC50
COc1cc(C)c(S(=O)(=O)NC(=N)NCCC[C@H]2NC(=O)[C@H](Cc3ccccc3)NC(=O)[C@H](Cc3c[nH]c4ccccc34)NC(=O)[C@@H](C)NC(=O)[C@H](Cc3ccccc3)NC2=O)c(C)c1C [Example 35, cyclo(-Phe-D-Arg-(Mtr)-Phe-D-Ala-Trp-)] (cyclo(F[dA]WF[dR](Mtr)))	-0.40
Cc1ccc(S(=O)(=O)NC(=N)NCCC[C@H]2NC(=O)[C@H](c3cccs3)NC(=O)[C@H](Cc3c[nH]c4ccccc34)NC(=O)[C@@H](C)NC(=O)[C@H](Cc3ccccc3)NC2=O)cc1 [Example 54, cyclo(-Thg(2)-D-Arg(Tos)-Phe-D-Ala-Trp-)] (cyclo(F[dA]W[Gly(2-thienyl)][dR](Tos)))	-0.52
Cc1ccc(S(=O)(=O)NC(=N)NCCC[C@H]2NC(=O)[C@H](Cc3ccccc3)NC(=O)[C@H](Cc3c[nH]c4ccccc34)NC(=O)[C@@H](C)NC(=O)[C@H](Cc3ccccc3)NC2=O)cc1 [Example 37, cyclo(-Phe-D-Arg(Tos)-Phe-D-Ala-Trp-)] (cyclo(F[dA]WF[dR](Tos)))	-0.52
CC(C)C[C@@H]1NC(=O)[C@@H](Cc2c[nH]c3ccccc23)NC(=O)[C@H](Cc2ccc(O)cc2)NC(=O)[C@@H](CCCCNC(=O)CCCCCc2ccccc2)NC(=O)[C@H](CCCNC(=N)N)NC1=O [Example 20] (cyclo(LR[dK](Hexanoyl(6-Ph))Y[dW]))	-1.00
CC(C)C[C@@H]1NC(=O)[C@@H](Cc2c[nH]c3ccccc23)NC(=O)[C@H](CCCNC(=N)N)NC(=O)[C@@H](Cc2ccc(O)cc2)NC(=O)[C@@H](CCCCNS(=O)(=O)c2cccc3ccccc23)NC1=O [Example 23] (cyclo(L[dK](Naphthalene1sulfonyl)[dY]R[dW]))	-0.05
CC(C)C[C@@H]1NC(=O)[C@@H](Cc2c[nH]c3ccccc23)NC(=O)[C@H](CCCCNC(=O)c2cccc3ccccc23)NC(=O)[C@@H](CCC(=O)NCCc2ccccc2)NC(=O)[C@H](CCCNC(=N)N)NC1=O [Example 31] (cyclo(K(1Naphthoyl)[dW]LR[dE](NHPhenethyl)))	-0.70
Cc1ccc(S(=O)(=O)NC(=N)NCCC[C@H]2NC(=O)[C@H](c3ccccc3)NC(=O)[C@H](Cc3c[nH]c4ccccc34)NC(=O)[C@@H](C)NC(=O)[C@H](Cc3ccccc3)NC2=O)cc1 [Example 48, cyclo(-Phg-D-Arg(Tos)-Phe-D-Ala-Trp-)] (cyclo(F[dA]W[Phg][dR](Tos)))	-1.15
CC(C)C[C@@H]1NC(=O)[C@@H](Cc2c[nH]c3ccccc23)NC(=O)[C@H](Cc2ccc(O)cc2)NC(=O)[C@@H](CCCCNC(=O)CCCc2ccccc2)NC(=O)[C@H](CCCNC(=N)N)NC1=O [Example 19] (cyclo(LR[dK](Butanoyl(4-Ph))Y[dW]))	0.00
C[C@H]1NC(=O)[C@H](Cc2ccccc2)NC(=O)[C@H](CCCNC(=N)N)NC(=O)[C@H](Cc2ccccc2)NC(=O)[C@H](Cc2c[nH]c3ccccc23)NC1=O [Example 43, cyclo(-Phe-Arg-Phe-D-Ala-Trp-)] (cyclo(FRF[dA]W))	0.00
CC(C)C[C@@H]1NC(=O)[C@@H](Cc2c[nH]c3ccccc23)NC(=O)[C@H](CCCCNC(=O)c2ccccc2)NC(=O)[C@@H](CCC(=O)NCCc2ccccc2)NC(=O)[C@H](CCCNC(=N)N)NC1=O [Example 21] (cyclo(K(Bz)[dW]LR[dE](NHPhenethyl)))	-0.40

Memo: CC(C)C[C@@H]1NC(=O)[C@@H](Cc2c[nH]c3ccccc23)NC(=O)[C@H](Cc2ccc(O)cc2)NC(=O)[C@@H]2CCCN2C(=O)[C@H](Cc2c[nH]c3ccccc23)NC(=O)[C@H](CCCNC(=N)N)NC1=O [Reference Example 1, cyclo(-Tyr-D-Trp-Leu-Arg-Trp-Pro-), reference compound] (cyclo(LRWPY[dW])) , reported log10 of IC50: 1.00

Memo: C[C@H]1NC(=O)[C@H](Cc2ccccc2)NC(=O)[C@@H](CCCNC(=N)N)NC(=O)[C@H](Cc2ccccc2)NC(=O)[C@H](Cc2c[nH]c3ccccc23)NC1=O [Example 36, cyclo(-Phe-D-Arg-Phe-D-Ala-Trp-)] (cyclo(F[dA]WF[dR])) , reported log10 of IC50: -0.05

Memo: C[C@H]1NC(=O)[C@H](Cc2ccccc2)NC(=O)[C@@H](CCCNC(=N)N)NC(=O)[C@H](c2ccccc2)NC(=O)[C@H](Cc2c[nH]c3ccccc23)NC1=O [Example 55, cyclo(-Phg-D-Arg-Phe-D-Ala-Trp-)] (cyclo(F[dA]W[Phg][dR])) , reported log10 of IC50: -0.70

Memo: Cc1ccc(S(=O)(=O)NC(=N)NCCC[C@H]2NC(=O)[C@H](c3ccccc3)NC(=O)[C@H](Cc3ccccc3)NC(=O)[C@@H](C)NC(=O)[C@H](Cc3ccccc3)NC2=O)cc1 [Example 53, cyclo(-Phg-D-Arg(Tos)-Phe-D-Ala-Phe-)] (cyclo(F[Phg][dR](Tos)F[dA])) , reported log10 of IC50: -1.00

* * *

Measured IC50 accompanies every entry in the list below.
# Tgt: Human LH-RH Receptor (Homo sapiens, UniProt P30968)
# Construct: expressed in transfected cells; host or cells: CHO cells (Chinese hamster ovary), membrane fraction
# Sequence (P30968 whole entry): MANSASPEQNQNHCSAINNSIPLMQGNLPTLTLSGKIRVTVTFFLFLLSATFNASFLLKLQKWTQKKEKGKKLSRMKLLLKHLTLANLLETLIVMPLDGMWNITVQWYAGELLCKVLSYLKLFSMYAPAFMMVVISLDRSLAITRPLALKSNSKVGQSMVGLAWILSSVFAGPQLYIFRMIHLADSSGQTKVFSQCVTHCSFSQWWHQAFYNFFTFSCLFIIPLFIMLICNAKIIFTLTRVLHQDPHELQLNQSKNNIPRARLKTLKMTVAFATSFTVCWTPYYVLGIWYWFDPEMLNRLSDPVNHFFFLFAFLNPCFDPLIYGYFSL
# Assay details: Inhibition of bonding of 125I-leuprorelin to human LH-RH receptor (receptor assay)
# Assay type: binding
# Assay conditions: human LH-RH receptor-expressing CHO cell membrane fraction, 25° C. for 60 minutes, Hill plotting
Square brackets hold non-standard residues; d marks the D form. Peptide text beside a SMILES is read from it. * marks the point of attachment. Naphthalene1sulfonyl = O=S(=O)(c1cccc2ccccc12)*; Tos = Cc1ccc(S(=O)(=O)*)cc1
Reply with just the number (in µM).

Compound	Tgt	Obs value
CC(C)C[C@@H]1NC(=O)[C@@H](Cc2c[nH]c3ccccc23)NC(=O)[C@H](Cc2ccc(O)cc2)NC(=O)[C@@H](CCCCNS(=O)(=O)c2cccc3ccccc23)NC(=O)[C@H](CCCNC(=N)N)NC1=O [Example 1] (cyclo(LR[dK](Naphthalene1sulfonyl)Y[dW]))	Human LH-RH Receptor (Homo sapiens, UniProt P30968)	0.9

--- query ---
Memo: Cc1ccc(S(=O)(=O)NC(=N)NCCC[C@H]2NC(=O)[C@H](C)NC(=O)[C@H](Cc3c[nH]c4ccccc34)NC(=O)[C@@H](C)NC(=O)[C@H](Cc3ccccc3)NC2=O)cc1 [Example 51, cyclo(-Ala-D-Arg(Tos)-Phe-D-Ala-Trp-)] (cyclo(A[dR](Tos)F[dA]W)) , reported IC50: 0.2
